The measurements presented in this section are drawn from patent US8703961B2.

biological target: UniProtKB P28482
Sequence (P28482 whole entry, species assumed): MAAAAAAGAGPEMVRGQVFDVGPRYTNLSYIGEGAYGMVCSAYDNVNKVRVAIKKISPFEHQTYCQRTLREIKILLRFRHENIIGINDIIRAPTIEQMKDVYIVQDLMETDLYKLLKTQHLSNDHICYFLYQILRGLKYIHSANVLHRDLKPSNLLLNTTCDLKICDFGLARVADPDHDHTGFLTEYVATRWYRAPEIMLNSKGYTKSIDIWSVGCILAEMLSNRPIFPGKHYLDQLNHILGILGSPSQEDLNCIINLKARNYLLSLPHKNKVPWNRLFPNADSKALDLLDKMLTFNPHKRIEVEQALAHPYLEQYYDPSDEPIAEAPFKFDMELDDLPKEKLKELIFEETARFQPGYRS
IC50 by entry:

1. Nc1ncsc1C#Cc1cnc2[nH]ccc2c1 : 10 to 100 µM
2. CC(C)(C)OC(=O)Nc1nc(-c2ccncc2)sc1C#CCN1CCOCC1 : > 1 µM
3. CC(C)(C)OC(=O)Nc1ncsc1C#CCN1C(=O)c2ccccc2C1=O : 10 to 100 µM

The recorded IC50 with UniProtKB P28482 for c1ccc(Cc2c[nH]c3ncsc23)cc1 [Compound A7, 6-benzyl-4H-pyrrolo[2,3-d]thiazole] was > 1 µM

Item: Nc1ncsc1C#Cc1cccc(O)c1 | System: UniProtKB P28482 | IC50: 1 to 10 µM
